- Study system: T1, HLA DQ molecule DQB1*0501 (human, limits assumed)
- T1 MHC II alpha: not shown
- T1 MHC II beta: not shown
- Method summary: inhibition of radiolabeled peptide binding to purified HLA class II
Experimental readout: pIC50
Answers are plain numbers, as −log10 of the molar value.

Please look up its pIC50: PAVKYIEPDMIVNAT [Pen ch 13 (101-115) peptide PAVKYIEPDMIVNAT, Peptide ID 3324.1304]
6.92

Attribution: patent US20150004189A1
